B1: library; a variant is named by its letters at N, in order (parent)
chain: GCUGUCACCGGUGCUUGGUACGUUAUAUUCAGCCGGUCUGAUGAGUCUNNNNNNAGACGAAACAGC

Variants of: B1
procedure summary: normalized RNA/DNA level without ligand (relative to sTRSVctl = 100) (log10 (% of sTRSVctl)); HEK293T overexpressing SLC46A1; higher = less ribozyme self-cleavage, higher mRNA level
condition parameters: without (6R,S)-folinic acid; ligand present: no
readout: normalized RNA/DNA level without ligand (log10)

1. UUGGUG :: 1.75
2. AACACA :: 1.99
3. GUGGUC :: 2.02
4. CCUAUG :: 2.04
5. AAUGAU :: 1.94
6. AAAUGA :: 1.96
7. CCGCCG :: 2.06
8. UACCAU :: 1.97
9. CAGCUC :: 2.05
10. GUGUGU :: 1.94
11. CUACGA :: 2.05
12. UUACGG :: 2.02
13. AAACAU :: 1.97
14. GACGAG :: 1.91
15. AUUACA :: 1.99
16. GGAUAU :: 2.02
17. CGAUCA :: 2.01
18. GACAUG :: 1.93
19. UCCUCG :: 1.92
20. ACCAAU :: 1.96
21. AAGGGG :: 1.9
22. CAUCAG :: 1.97
23. UGCGUA :: 1.9
24. UCGGUA :: 1.93
25. UCAAGA :: 2
26. CAAGAC :: 2.03
27. UAGGAG :: 1.63
28. CAAAAC :: 2
29. GUCGCA :: 2.03
30. CAAGAG :: 1.9
31. GCUACG :: 2.03
32. CGAGAC :: 1.95
33. GCCAUC :: 2.02
34. UUCCCA :: 2.03
35. GCCAGG :: 1.98
36. UGGUAC :: 1.99
37. UUACAU :: 1.96
38. UUAACU :: 2.04
39. CAGGCU :: 2.06
40. CCCAAA :: 2.02
41. ACCUCG :: 2.03
42. GACAAG :: 1.94
43. CCCAGG :: 2.04
44. AGGCUU :: 2.03
45. UAAUCC :: 2
46. AAACUC :: 2.05
47. UGUGUC :: 2.04
48. CGCAUA :: 1.98
49. UAACUU :: 1.99
50. GCAGUU :: 2.03
51. AAUAGC :: 1.98
52. CACCGC :: 2.05
53. CCAGUA :: 2.03
54. ACAUAA :: 1.97
55. UCCGCC :: 2.03
56. GCCUGG :: 2
57. AAGAUA :: 1.96
58. AACCUG :: 1.97
59. UCGUCC :: 2.06
60. GGCGAU :: 2.07
61. GGGCAG :: 2.03
62. UAACCA :: 2.01
63. ACUGAU :: 1.95
64. CGUUGG :: 1.93
65. CUCAAG :: 1.96
66. GGCUAA :: 2.04
67. UAAUUA :: 1.99
68. UAGGUU :: 1.96
69. AGGAUA :: 1.94
70. ACGGGG :: 2
71. CUAAGG :: 1.96
72. CGGGAA :: 1.98
73. AGUCAA :: 1.96
74. CUUUCG :: 2.05
75. CAUGAA :: 1.95
76. CGGAUG :: 2
77. GUUGCU :: 2.02
78. GCCGAG :: 1.97
